molecules and their reported mean percent encapsulation of RNA
- Test system: mRNA
- protocol.notes: mRNA encapsulation (modified Quant-iT RiboGreen assay)
- Format: physicochemical
- applied.conditions: RiboGreen, without vs with Triton X-100
Starred links: 1 amine or outer side, 2 acyl side, 3 side chain; linkers in the order of their positions; H or OH if unused. Non-standard residues stand in square brackets, D forms with d. Residues, ends and D or L forms follow the SMILES beside them. *: point of attachment. Gly(N-(3-decanoyloxypropyl)) = CCCCCCCCCC(=O)OCCCNCC(=O)O; Gly(N-(CH2)3O-octanoyl) = CCCCCCCC(=O)OCCCNCC(=O)O; Gly(N-3-morpholinopropyl) = O=C(O)CNCCCN1CCOCC1; N(2-ethylhexyl)Gly = CCCCC(CC)CNCC(=O)O; X6 = CCCCCCCC(=O)OCCN(CC(=O)[*:2])[*:1]; X1 = CCCCC(CC)CSSCCN(CC(=O)[*:2])[*:1]; N(CH(CH2OH)2)Gly = O=C(O)CNC(CO)CO; N(octyl)Gly = CCCCCCCCNCC(=O)O; NDecylGly = CCCCCCCCCCNCC(=O)O; For = O=C*
State the answer as a number, implicitly in %.

[[record]]
molecule = "CCCCCCCCCCN(CC(=O)N(CC(=O)N(CCCOC(=O)CCCCCCCCC)CC(N)=O)CC(CC)CCCC)C(=O)CN(CC(CC)CCCC)C(=O)CN(CCCOC(=O)CCCCCCCCC)C(=O)CN(CC(CC)CCCC)C(=O)CNC(CO)CO (stereo not drawn) [Compound 58] (H-[N(CH(CH2OH)2)Gly][N(2-ethylhexyl)Gly][Gly(N-(3-decanoyloxypropyl))][N(2-ethylhexyl)Gly][NDecylGly][N(2-ethylhexyl)Gly][Gly(N-(3-decanoyloxypropyl))]-NH2)"
experimental_system = "mRNA"
measured_result = 78.1


In: Entry under review: CCCCCCCCN(C=O)CC(=O)N(CCCOC(=O)CCCCCCC)CC(=O)N(CCSSCC(CC)CCCC)CC(=O)N(CCCN1CCOCC1)CC(=O)N(CCSSCC(CC)CCCC)CC(=O)N(CCCOC(=O)CCCCCCC)CC(=O)N(CCCCCCCC)CC(N)=O (stereo not drawn) [Compound 132] (For-[N(octyl)Gly][Gly(N-(CH2)3O-octanoyl)][X1][Gly(N-3-morpholinopropyl)][X1][Gly(N-(CH2)3O-octanoyl)][N(octyl)Gly]-NH2) . Reported mean percent encapsulation of RNA?
Out: 74.2

In: Entry under review: CCCCCCCC(=O)OCCN(CC(=O)N(CC(=O)N(CC(=O)N(CCOC(=O)CCCCCCC)CC(=O)N(CC(N)=O)CC(CC)CCCC)CC(CC)CCCC)CC(CC)CCCC)C(=O)CN(CC(CC)CCCC)C(=O)CNC(CO)CO (stereo not drawn) [Compound 1] (H-[N(CH(CH2OH)2)Gly][N(2-ethylhexyl)Gly][X6][N(2-ethylhexyl)Gly][N(2-ethylhexyl)Gly][X6][N(2-ethylhexyl)Gly]-NH2) . Reported mean percent encapsulation of RNA?
Out: 93.0

---

- protocol.notes: Delivery vehicle size and polydispersity by dynamic light scattering
- Assay type: physicochemical
- applied.conditions: DLS in PBS; peptoid:DSPC:Cholesterol:DMG-PEG2000 weight ratio 20:1.79:7.16:1.84, mRNA
Starred links: 1 amine or outer side, 2 acyl side, 3 side chain; linkers in the order of their positions; H or OH if unused. Non-standard residues stand in square brackets, D forms with d. Residues, ends and D or L forms follow the SMILES beside them. *: point of attachment. Gly(N-(3-decanoyloxypropyl)) = CCCCCCCCCC(=O)OCCCNCC(=O)O; Gly(N-(CH2)3O-octanoyl) = CCCCCCCC(=O)OCCCNCC(=O)O; Gly(N-3-morpholinopropyl) = O=C(O)CNCCCN1CCOCC1; N(2-ethylhexyl)Gly = CCCCC(CC)CNCC(=O)O; X6 = CCCCCCCC(=O)OCCN(CC(=O)[*:2])[*:1]; X1 = CCCCC(CC)CSSCCN(CC(=O)[*:2])[*:1]; N(CH(CH2OH)2)Gly = O=C(O)CNC(CO)CO; N(octyl)Gly = CCCCCCCCNCC(=O)O; NDecylGly = CCCCCCCCCCNCC(=O)O; For = O=C*
readout.name: PDI
Simply state the number, no unit and no words.

In: Entry under review: CCCCCCCCN(CC(=O)N(CCCOC(=O)CCCCCCC)CC(=O)N(CCSSCC(CC)CCCC)CC(=O)N(CCCCCCCC)CC(=O)N(CCCOC(=O)CCCCCCC)CC(=O)N(CCSSCC(CC)CCCC)CC(N)=O)C(=O)CNC(CO)CO (centres unmarked) [Compound 127] (H-[N(CH(CH2OH)2)Gly][N(octyl)Gly][Gly(N-(CH2)3O-octanoyl)][X1][N(octyl)Gly][Gly(N-(CH2)3O-octanoyl)][X1]-NH2) . Reported PDI?
Out: 0.093

In: Entry under review: CCCCCCCCCCN(CC(=O)N(CC(=O)N(CCCOC(=O)CCCCCCCCC)CC(N)=O)CC(CC)CCCC)C(=O)CN(CC(CC)CCCC)C(=O)CN(CCCOC(=O)CCCCCCCCC)C(=O)CN(CC(CC)CCCC)C(=O)CNC(CO)CO (centres unmarked) [Compound 58] (H-[N(CH(CH2OH)2)Gly][N(2-ethylhexyl)Gly][Gly(N-(3-decanoyloxypropyl))][N(2-ethylhexyl)Gly][NDecylGly][N(2-ethylhexyl)Gly][Gly(N-(3-decanoyloxypropyl))]-NH2) . Reported PDI?
Out: 0.159

In: Entry under review: CCCCCCCC(=O)OCCCN(C=O)CC(=O)N(CCCOC(=O)CCCCCCC)CC(=O)N(CCc1ccccc1)CC(=O)N(CC(=O)N(CCCN1CCOCC1)CC(=O)N(CCCOC(=O)CCCCCCC)CC(=O)N(CCc1ccccc1)CC(=O)N(CCCOC(=O)CCCCCCC)CC(=O)N(CC(N)=O)CC(CC)CCCC)CC(CC)CCCC (centres unmarked) . Reported PDI?
Out: 0.111

In: Entry under review: CCCCCCCC(=O)OCCN(CC(=O)N(CC(=O)N(CC(=O)N(CCOC(=O)CCCCCCC)CC(=O)N(CC(N)=O)CC(CC)CCCC)CC(CC)CCCC)CC(CC)CCCC)C(=O)CN(CC(CC)CCCC)C(=O)CNC(CO)CO (centres unmarked) [Compound 1] (H-[N(CH(CH2OH)2)Gly][N(2-ethylhexyl)Gly][X6][N(2-ethylhexyl)Gly][N(2-ethylhexyl)Gly][X6][N(2-ethylhexyl)Gly]-NH2) . Reported PDI?
Out: 0.094

In: Entry under review: CCCCCCCCCC(=O)OCCCN(CC(=O)N(CC(=O)N(CC(=O)N(CCCOC(=O)CCCCCCCCC)CC(=O)N(CC(N)=O)CC(CC)CCCC)CC(CC)CCCC)CC(CC)CCCC)C(=O)CN(CC(CC)CCCC)C(=O)CN(C=O)CCCN1CCOCC1 (centres unmarked) [Compound 106] (For-[Gly(N-3-morpholinopropyl)][N(2-ethylhexyl)Gly][Gly(N-(3-decanoyloxypropyl))][N(2-ethylhexyl)Gly][N(2-ethylhexyl)Gly][Gly(N-(3-decanoyloxypropyl))][N(2-ethylhexyl)Gly]-NH2) . Reported PDI?
Out: 0.155
